test: TLR3 IRF3 reporter activation blockers – cell-based, poly I:C stimulus, luciferase, 10K MLSCN set, primary screen (AID 602277); conditions: HEK293-TLR3 RL24 IRF3 luciferase reporter, at 10 µM
Activity calls are given as the source filed them.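 Rule for the calls: active = inhibition of the reporter signal at or above 50%; inactive = inhibition below 50%.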
Please state which outcome applies, choosing from active, inactive

Q: Fill in: this test's call for O=C(Nc1nccs1)c1ccc(COc2ccccc2Br)o1 is ___
Ans: inactive

Q: What outcome does the record of this test show for O=C(c1ccc(-c2ccccc2)cc1)N1CCN(c2ncccn2)CC1 ?
Ans: inactive

Q: Can you look up the reported call for Cc1nnc(SCc2cn3ccsc3n2)n(N)c1=O for me?
Ans: inactive

Q: Identify the outcome logged in this assay for the compound shown: Nc1ncnc(Nc2ccccc2C(F)(F)F)n1
Ans: inactive

Q: Recorded call for O=C(NCc1nnc(SCC(=O)N2CCC(Cc3ccccc3)CC2)o1)c1ccccc1F ?
Ans: inactive

Q: Dear colleague, could you share the recorded outcome for O=C(O)c1cc(Cl)c(Cl)cc1C(=O)N1CCCC1 when you have a moment?
Ans: inactive
